- ASSAY_SYSTEM: Gal(b1-3)GlcNAc(b1-3)Gal(b1-4)GlcNAc
- PROCEDURE_TEXT: glycan array binding signal (z-score within array); higher = stronger binding
- MEASUREMENT_CONDITIONS: glycan notation: IUPAC condensed, linker removed
About 410 targets per protein were measured; listed, in parts, are those with the strongest signals and a random draw of the rest.
// values below are reported glycan array binding signal (z-score)
QUANTITY_MEASURED: glycan array binding signal (z-score)

{"BINDER": "RS-IIL (Ralstonia solanacearum) (protein) AQQGVFTLPANTSFGVTAFANAANTQTIQVLVDNVVKATFTGSGTSDKLLGSQVLNSGSGAIKIQVSVNGKPSDLVSNQTILANKLNFAMVGSEDGTDNDYNDGIAVLNWPLG", "READING": -0.381}
{"BINDER": "FaeGab (Escherichia coli) (protein) WMTGDFNGSVDIGGSITADDYRQKWEWKVGTGLNGFGNVLNDLTNGGTKLTITVTGNKPILLGRTKEAFATPVSGGVDGIPQIAFTDYEGASVKLRNTDGETNKGLAYFVLPMKNAEGTKVGSVKVNASYAGVFGKGGVTSADGELFSLFADGLRAIFYGGLTTTVSGAALTSGSAAAARTELFGSLSRNDILGQIQRVNANITSLVDVAGSYREDMEYTDGTVVSAAYALGIANGQTIEATFNQAVTTSTQWSAPLNVAITYY", "READING": -0.347}
{"BINDER": "LlpA (Burkholderia cenocepacia) (protein) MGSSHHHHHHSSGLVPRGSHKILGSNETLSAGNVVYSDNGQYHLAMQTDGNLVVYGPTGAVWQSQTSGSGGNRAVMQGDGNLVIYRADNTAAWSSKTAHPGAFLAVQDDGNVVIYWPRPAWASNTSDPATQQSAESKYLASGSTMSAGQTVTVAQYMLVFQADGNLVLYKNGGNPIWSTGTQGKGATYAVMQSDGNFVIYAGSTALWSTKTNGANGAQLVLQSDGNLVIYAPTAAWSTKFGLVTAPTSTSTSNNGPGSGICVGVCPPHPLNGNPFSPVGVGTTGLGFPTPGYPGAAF", "READING": -0.526}
{"BINDER": "Aap arpt (Staphylococcus epidermidis) (protein) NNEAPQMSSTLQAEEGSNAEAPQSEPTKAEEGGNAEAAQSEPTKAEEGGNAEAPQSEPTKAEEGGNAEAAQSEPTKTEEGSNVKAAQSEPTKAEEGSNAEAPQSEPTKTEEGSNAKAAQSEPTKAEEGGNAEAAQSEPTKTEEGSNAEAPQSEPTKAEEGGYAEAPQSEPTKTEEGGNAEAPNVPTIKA", "READING": -1.2}
{"BINDER": "F17fG (Escherichia coli), Q9RH91 (protein) MTNFYKVFLAVFILVCCNISHAAVSFIGSTENDVGPSQGSYSSTHAMDNLPFVYNTGHNIGYQNANVWRISGGFCVGLDGKVDLPVVGSLDGQSIYGLTEEVGLLIWMGDTNYSRGTAMSGNSWENVFSGWCVGNYVSTQGLSVHVRPVILKRNSSAQYSVQKTSIGSIRMRPYNGSSAGSVQTTVNFSLNPFTLNDTVTSCRLLTPSAVNVSLAAISAGQLPSSGDEVVAGTTSLKLQCDAGVTVWATLTDATTPSNRSDILTLTGASTATGVGLRIYKNTDSTPLKFGPDSPVKGNENQWQLSTGTETSPSVRLYVKYVNTGEGINPGTVNGISTFTFSYQ", "READING": -0.3}
{"BINDER": "Tp0751, 83732 (protein) MSYYHHHHHHLESTSLYKKAGFQHGHVPPRRIPPHDTFGALPTAALPSNARDTAAHPSDTADNTSGSSTTTDPRSHGNAPPAPVGGAAQTHTQPPVQTAMRIALWNRATHGEQGALQHLLAGLWIQTEISPNSGDIHPLLFFDREHAEITFSRASVQEIFLVDSAHTHRKTVSFLTRNTAISSIRRRLEVTFESHEVIHVRAVEDVARLKIGSTSMWDGQYTRYHAGPASAPSP", "READING": -0.382}
{"BINDER": "Epa21 (Candida glabrata) (protein) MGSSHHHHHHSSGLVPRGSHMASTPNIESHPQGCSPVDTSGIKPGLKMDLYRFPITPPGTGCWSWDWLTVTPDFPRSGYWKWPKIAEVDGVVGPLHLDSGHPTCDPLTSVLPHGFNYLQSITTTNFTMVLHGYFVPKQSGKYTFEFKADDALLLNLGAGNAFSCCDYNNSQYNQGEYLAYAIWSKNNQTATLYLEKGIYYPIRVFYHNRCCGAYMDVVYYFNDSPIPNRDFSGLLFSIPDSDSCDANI", "READING": -0.56}
{"BINDER": "LecB LY19 (Pseudomonas aeruginosa) (protein) MATQGVFTLPANTQFGVTAFANSAGTQTVNVQVNNETVATFTGQSTNNGIIGSKVLNSGGGGKVQILVSVNGRSSDLVSAQVILANELNFALVGSEDSTDNDYNDAVVVINWPLG", "READING": -0.553}
{"BINDER": "Epa22 (Candida glabrata) (protein) MGSSHHHHHHSSGLVPRGSHMKRALSSQNPFGYPIGCSPQSTNVIPGLTMELYSYPIVSGTPPNCYDASYVDPEYPRTGYLKRKMIGKSTGVTGSLNYKFSVEKACMVKYGNLPAGYNYNEPLTVSNFTMLLYGYFKPQTSGIHTFFVNADDLLYINFGAGNAFDCCKREDSKFKLGEYVAYDIWHVDSSKNKVSLNLEKDVYYPIRMFFNNIGKDSSLDLSFSVNGAVEHITDFSGYLYSVPDQPDACPAPIGYDTTCK", "READING": -0.148}
{"BINDER": "F17aG (Escherichia coli), Q99003 (protein) MTNFYKVFLAVFILVCCNISQAAVSFIGSTENDVGPSLGSYSRTHAMDNLPFVYDTRNKIGYQNANVWHISKGFCVGLDGKVDLPVVGSLDGQSIYGLTEEVGLLIWMGDTKYSRGTAMSGNSWENVFSGWCVGANTASTQGLSVRVTPVILKRNSSARYSVQKTSIGSIRMRPYNGSSAGSVQTTVNFSLNPFTLNDTVTSCRLLTPSAVNVSLAAISAGQLPSSGDEVVAGTTSLKLQCDAGVTVWATLTDATTPSNRSDILTLTGASTATGVGLRIYKNTDSTPLKFGPDSPVKGNENQWQLSTGTETSPSVRLYVKYVNTGEGINPGTVNGISTFTFSYQ", "READING": -0.236}
{"BINDER": "PfulAvr4 2 (Pseudocercospora fuligena) (protein) HHHHHHDYKDDDDKAKPIKPFACPPKDFTTTKCQGPVDCLYANPLSCLGYIQCVCDDDACSTATPYAKSCPTGLAWVEKLKRCDGIKKSACPKKMYEGS", "READING": -0.311}
